experimental-target: UniProt P00747
Sequence (P00747 97-580 limits assumed): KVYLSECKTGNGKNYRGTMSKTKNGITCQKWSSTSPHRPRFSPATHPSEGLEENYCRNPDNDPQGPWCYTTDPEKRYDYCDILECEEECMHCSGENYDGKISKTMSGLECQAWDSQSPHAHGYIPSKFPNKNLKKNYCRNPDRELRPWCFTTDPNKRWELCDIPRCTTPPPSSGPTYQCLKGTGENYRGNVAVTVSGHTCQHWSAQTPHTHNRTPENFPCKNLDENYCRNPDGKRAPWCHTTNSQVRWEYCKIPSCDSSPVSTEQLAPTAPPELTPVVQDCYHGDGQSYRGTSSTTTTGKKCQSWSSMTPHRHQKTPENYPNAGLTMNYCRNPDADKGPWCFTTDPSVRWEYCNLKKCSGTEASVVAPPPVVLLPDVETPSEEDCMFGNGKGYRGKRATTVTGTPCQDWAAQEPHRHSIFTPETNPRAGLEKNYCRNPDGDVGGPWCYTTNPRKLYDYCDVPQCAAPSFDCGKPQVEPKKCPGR
Sequence (P00747 581-810 limits assumed): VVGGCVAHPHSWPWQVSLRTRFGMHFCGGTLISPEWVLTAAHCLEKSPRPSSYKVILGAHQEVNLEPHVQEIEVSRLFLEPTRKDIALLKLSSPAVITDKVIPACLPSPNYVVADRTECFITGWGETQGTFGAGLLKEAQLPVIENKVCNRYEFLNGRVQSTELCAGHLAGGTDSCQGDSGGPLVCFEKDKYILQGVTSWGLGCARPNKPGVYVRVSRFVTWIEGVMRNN
measured-parameter: Ki (µM)
Write down the numeric answer in µM and omit the unit.

Input line: Quick check: Ki of CC(=N)N1CC[C@H](Oc2ccc([C@H](Cc3ccc4ccc(C(=N)N)cc4c3)C(=O)O)cc2)C1.Cl [DX-9065A HYDROCHLORIDE HYDRATE] ?
Output line: 23

---

Each entry below carries its reported IC50.
experimental-target: UniProtKB P00742
Sequence (P00742 41-179 limits assumed): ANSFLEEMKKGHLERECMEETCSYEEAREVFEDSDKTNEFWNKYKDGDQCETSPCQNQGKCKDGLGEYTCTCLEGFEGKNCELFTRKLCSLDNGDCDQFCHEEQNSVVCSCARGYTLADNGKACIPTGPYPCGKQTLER
Sequence (P00742 235-488 limits assumed): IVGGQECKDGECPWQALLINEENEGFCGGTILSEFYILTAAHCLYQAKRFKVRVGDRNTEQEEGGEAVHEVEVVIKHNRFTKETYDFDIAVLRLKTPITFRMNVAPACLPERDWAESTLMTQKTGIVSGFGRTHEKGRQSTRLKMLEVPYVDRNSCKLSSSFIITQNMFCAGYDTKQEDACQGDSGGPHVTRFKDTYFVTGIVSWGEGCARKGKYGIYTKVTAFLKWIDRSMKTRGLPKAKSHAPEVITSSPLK
Write down the numeric answer in µM and omit the unit.

[
  {
    "structure-notation": "COC(=O)c1cnccc1N1CCC(COc2ccc3c(c2)CN(C(=N)N)CC3)CC1.Cl.Cl",
    "measured-result": 0.27
  },
  {
    "structure-notation": "Cl.Cl.N=C(N)N1CCc2ccc(OCC3CCN(c4ccnc5ccccc45)CC3)cc2C1",
    "measured-result": 0.42
  },
  {
    "structure-notation": "Cl.Cl.N=C(N)N1CCc2ccc(OCC3CCN(c4ccncc4C(=O)O)CC3)cc2C1",
    "measured-result": 1.98
  },
  {
    "structure-notation": "CC(=N)N1CCC(COc2ccc3c(c2)CN(C(=N)N)CC3)CC1.Cl.Cl",
    "measured-result": 0.51
  },
  {
    "structure-notation": "CCOC(=O)C1(COc2ccc3c(c2)CN(C(=N)N)CC3)CCN(c2cc[n+](C)cc2)CC1",
    "measured-result": 1.13
  }
]

Input line: Quick check: IC50 of Cl.Cl.N=C(N)N1CCc2ccc(OCC3CCN(c4ccncc4)CC3)cc2C1 ?
Output line: 0.056

Input line: Quick check: IC50 of Cl.Cl.N=C(N)N1CCc2ccc(OCC3CCN(c4ccncc4CCC(=O)O)CC3)cc2C1 ?
Output line: 0.16

Input line: Quick check: IC50 of Cl.Cl.N=C(N)N1CCc2ccc(OCC3(C(=O)O)CCN(c4ccncn4)CC3)cc2C1 ?
Output line: 0.12

Input line: Quick check: IC50 of Cc1cc(N2CCC(COc3ccc4c(c3)CN(C(=N)N)CC4)(C(=O)O)CC2)ccn1.Cl.Cl ?
Output line: 0.23

Input line: Quick check: IC50 of CCOC(=O)C1(COc2ccc3c(c2)CN(C(=N)N)CC3)CCN(c2ccncc2)CC1.Cl.Cl ?
Output line: 0.074

Input line: Quick check: IC50 of CCOC(=O)CCc1cnccc1N1CCC(COc2ccc3c(c2)CN(C(=N)N)CC3)CC1.Cl.Cl ?
Output line: 0.19
